- Tested on: S. epidermidis (10) clinical isolates
- method: Susceptibility of clinical isolates (MIC)
- Format: cell-based, Staphylococcus epidermidis
- cond: Staphylococcus epidermidis; S. epidermidis, 10 clinical isolates; read-out: MIC90
reported-metric: MIC90 (µg/mL)
Answers are plain numbers, in µg/mL.

Recorded results for 5 compounds are shown here.
compound="CC1Sc2c(C(=O)O)c(=O)c3cc(F)c(N4CCC(O)(COc5ccc(N6C[C@H](CO)OC6=O)cc5F)CC4)cc3n21 (stereo partly drawn)" readout_number=0.125
compound=CCN1CCN(c2cc3c(cc2F)c(=O)c(C(=O)O)cn3C2CC2)CC1 readout_number=4
compound="CC1CCc2c(N3CCC(O)CC3)c(F)cc3c(=O)c(C(=O)O)cn1c23 (stereo not drawn)" readout_number=2
compound="COc1c(N2CCNC(C)C2)c(F)cc2c(=O)c(C(=O)O)cn(C3CC3)c12 (stereo not drawn)" readout_number=2
compound=C[C@H]1CCc2c(N3CCC(O)(COc4ccc(N5C[C@H](CO)OC5=O)cc4F)CC3)c(F)cc3c(=O)c(C(=O)O)cn1c23 readout_number=0.25

Let us move to another entry and its MIC90.
Record request: MIC90 value, item CC(=O)NC[C@H]1CN(c2ccc(N3CCOCC3)c(F)c2)C(=O)O1 [LZD, linezolid, reference compound]
1

----------
- Tested on: H. parasuis (34) clinical isolates
- method: Susceptibility of clinical isolates (MIC)
- Type: cell-based, Haemophilus parasuis
- cond: H. parasuis, 34 clinical isolates
Kindly state MIC Range for each of the entries shown.

Recorded results for 4 molecules are shown here.
molecule="CC1CCc2c(N3CCC(O)CC3)c(F)cc3c(=O)c(C(=O)O)cn1c23 (centres unmarked)" test_target="H. parasuis (34) clinical isolates" result="≤0.0625 to 1 µg/mL"
molecule="COc1c(N2CCNC(C)C2)c(F)cc2c(=O)c(C(=O)O)cn(C3CC3)c12 (centres unmarked)" test_target="H. parasuis (34) clinical isolates" result="≤0.0625 to 1 µg/mL"
molecule="CC1Sc2c(C(=O)O)c(=O)c3cc(F)c(N4CCC(O)(COc5ccc(N6C[C@H](CO)OC6=O)cc5F)CC4)cc3n21 (some centres unmarked)" test_target="H. parasuis (34) clinical isolates" result="≤0.0625 to 4 µg/mL"
molecule=C[C@H]1CCc2c(N3CCC(O)(COc4ccc(N5C[C@H](CO)OC5=O)cc4F)CC3)c(F)cc3c(=O)c(C(=O)O)cn1c23 test_target="H. parasuis (34) clinical isolates" result="≤0.0625 to 4 µg/mL"

Record request: MIC Range value, item CCN1CCN(c2cc3c(cc2F)c(=O)c(C(=O)O)cn3C2CC2)CC1
≤0.0625 to 1 µg/mL

----------
- System: S. aureus (ATCC29213)
- method: MIC, broth microdilution (CLSI), standard strain
- Assay type: cell-based
- cond: Staphylococcus aureus
Kindly state log10(MIC) for each of the entries shown.
Plainly stated, the numbers are log10 of MIC given in µg/mL.

Recorded results for 6 compounds are shown here.
compound="CN1COc2c(N3CC4C(C3)C4Nc3ccc(N4C[C@H](CO)OC4=O)cc3F)c(F)cc3c(=O)c(C(=O)O)cn1c23 (stereo partly shown) [OBP-6]" reported_metric=log10(MIC) readout_number=-1.21
compound="C[C@H]1CCc2c(N3CCC(O)(COc4ccc(N5C[C@H](CO)OC5=O)cc4F)CC3)c(F)cc3c(=O)c(C(=O)O)cn1c23 [OBP-4]" reported_metric=log10(MIC) readout_number=-1.80
compound="C[C@H]1COc2c(N3CCC(O)(COc4ccc(N5C[C@H](CO)OC5=O)cc4F)CC3)c(F)c(N)c3c(=O)c(C(=O)O)cn1c23 [OBP-3]" reported_metric=log10(MIC) readout_number=0.30
compound="CC1Sc2c(C(=O)O)c(=O)c3cc(F)c(N4CCC(O)(COc5ccc(N6C[C@H](CO)OC6=O)cc5F)CC4)cc3n21 (stereo partly shown) [OBP-5]" reported_metric=log10(MIC) readout_number=-0.60
compound="CN1COc2c(N3CCC(O)(COc4ccc(N5C[C@H](CO)OC5=O)cc4F)CC3)c(F)cc3c(=O)c(C(=O)O)cn1c23 [OBP-1]" reported_metric=log10(MIC) readout_number=0.00
compound="CC(=O)NC[C@H]1CN(c2ccc(N3CCOCC3)c(F)c2)C(=O)O1 [LZD, linezolid, reference compound]" reported_metric=log10(MIC) readout_number=0.60

Let us move to another entry and its log10(MIC).
Record request: log10(MIC) value, item C[C@H]1COc2c(N3CCC(O)(COc4ccc(N5C[C@H](CO)OC5=O)cc4F)CC3)c(F)cc3c(=O)c(C(=O)O)cn1c23 [OBP-2]
-0.60

----------
Kindly state MIC50 for each of the entries shown.
- Test system: S. haemolyticus (32) clinical isolates
- method: Susceptibility of clinical isolates (MIC)
- Type: cell-based, Staphylococcus haemolyticus
- cond: Staphylococcus haemolyticus; S. haemolyticus, 32 clinical isolates; read-out: MIC50
Give bare numbers, in µg/mL.

molecule="COc1c(N2CCNC(C)C2)c(F)cc2c(=O)c(C(=O)O)cn(C3CC3)c12 (stereo not drawn)" reported_metric=MIC50 output_unit=µg/mL readout_number=0.125

Hey, quick one: what's MIC50 for each of these?
1. CC(=O)NC[C@H]1CN(c2ccc(N3CCOCC3)c(F)c2)C(=O)O1 [LZD, linezolid, reference compound]
2. C[C@H]1CCc2c(N3CCC(O)(COc4ccc(N5C[C@H](CO)OC5=O)cc4F)CC3)c(F)cc3c(=O)c(C(=O)O)cn1c23

[0.5, 0.125]

----------
Kindly state MIC for each of the entries shown.
- System: H. influenzae (ATCC49247)
- method: MIC, broth microdilution (CLSI), standard strain
- Type: cell-based
- cond: Haemophilus influenzae
Numbers only, in µg/mL.

compound="CC1Sc2c(C(=O)O)c(=O)c3cc(F)c(N4CCC(O)(COc5ccc(N6C[C@H](CO)OC6=O)cc5F)CC4)cc3n21 (stereo partly drawn) [OBP-5]" reported_metric=MIC readout_number=0.25
compound="CN1COc2c(N3CC4C(C3)C4Nc3ccc(N4C[C@H](CO)OC4=O)cc3F)c(F)cc3c(=O)c(C(=O)O)cn1c23 (stereo partly drawn) [OBP-6]" reported_metric=MIC readout_number=0.016
compound="C[C@H]1COc2c(N3CCC(O)(COc4ccc(N5C[C@H](CO)OC5=O)cc4F)CC3)c(F)cc3c(=O)c(C(=O)O)cn1c23 [OBP-2]" reported_metric=MIC readout_number=0.5
compound="C[C@H]1CCc2c(N3CCC(O)(COc4ccc(N5C[C@H](CO)OC5=O)cc4F)CC3)c(F)cc3c(=O)c(C(=O)O)cn1c23 [OBP-4]" reported_metric=MIC readout_number=0.25
compound="O=C(O)c1cn(C2CC2)c2cc(N3CC4C(C3)C4Nc3ccc(N4C[C@H](CO)OC4=O)cc3F)c(F)cc2c1=O (stereo partly drawn) [OBP-7]" reported_metric=MIC readout_number=0.031

Record request: MIC value, item COc1c(N2C[C@@H]3CCCN[C@@H]3C2)c(F)cc2c(=O)c(C(=O)O)cn(C3CC3)c12 [MXF, moxifloxacin, reference compound]
0.008

----------
- test-target: E. coli Topo IV (Escherichia coli, UniProt P0AFI2+P20083)
- Sequence (P20083 whole entry): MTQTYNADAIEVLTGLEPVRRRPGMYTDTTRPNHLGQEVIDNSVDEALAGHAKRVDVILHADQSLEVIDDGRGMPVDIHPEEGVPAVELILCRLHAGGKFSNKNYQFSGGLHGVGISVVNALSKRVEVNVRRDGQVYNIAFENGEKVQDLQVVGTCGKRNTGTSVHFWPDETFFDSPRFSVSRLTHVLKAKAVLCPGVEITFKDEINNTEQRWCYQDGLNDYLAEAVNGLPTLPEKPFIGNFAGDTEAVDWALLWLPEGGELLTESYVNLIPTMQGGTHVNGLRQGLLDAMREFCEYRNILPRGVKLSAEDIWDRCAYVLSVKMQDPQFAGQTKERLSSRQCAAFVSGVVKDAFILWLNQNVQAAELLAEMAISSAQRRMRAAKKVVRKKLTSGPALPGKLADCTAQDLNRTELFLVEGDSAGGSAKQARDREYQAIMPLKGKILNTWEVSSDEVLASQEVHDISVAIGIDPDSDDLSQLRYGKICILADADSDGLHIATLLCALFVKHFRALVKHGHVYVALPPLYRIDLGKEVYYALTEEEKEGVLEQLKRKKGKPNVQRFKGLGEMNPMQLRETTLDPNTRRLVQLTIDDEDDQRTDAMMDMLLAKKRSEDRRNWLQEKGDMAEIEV
- Sequence (P0AFI2 whole entry): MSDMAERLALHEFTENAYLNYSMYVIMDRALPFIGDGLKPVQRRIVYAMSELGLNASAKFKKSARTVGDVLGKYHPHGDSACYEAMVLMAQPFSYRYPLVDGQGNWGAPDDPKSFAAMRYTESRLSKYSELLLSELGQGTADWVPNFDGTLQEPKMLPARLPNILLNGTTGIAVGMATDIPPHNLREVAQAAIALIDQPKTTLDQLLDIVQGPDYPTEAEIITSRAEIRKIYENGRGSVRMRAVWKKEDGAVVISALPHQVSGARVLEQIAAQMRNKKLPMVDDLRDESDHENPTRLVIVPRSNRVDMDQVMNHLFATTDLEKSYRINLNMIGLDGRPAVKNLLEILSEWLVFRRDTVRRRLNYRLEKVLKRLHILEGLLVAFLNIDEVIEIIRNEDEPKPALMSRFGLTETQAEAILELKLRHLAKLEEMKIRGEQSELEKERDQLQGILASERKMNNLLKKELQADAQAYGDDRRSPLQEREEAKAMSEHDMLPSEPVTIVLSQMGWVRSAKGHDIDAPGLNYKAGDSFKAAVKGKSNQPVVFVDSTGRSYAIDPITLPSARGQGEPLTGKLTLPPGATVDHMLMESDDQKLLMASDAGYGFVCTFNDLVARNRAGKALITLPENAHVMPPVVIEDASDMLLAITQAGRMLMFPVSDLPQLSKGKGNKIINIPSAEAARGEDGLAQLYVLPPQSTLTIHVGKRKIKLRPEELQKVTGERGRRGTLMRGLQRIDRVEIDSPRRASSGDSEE
- method: Topo IV relaxation assay
- cond: relaxation of supercoiled pBR322, 37 °C, 30 min
pIC50: −log10 of the molar value.
reported-metric: pIC50

molecule=C[C@H]1CCc2c(N3CCC(O)(COc4ccc(N5C[C@H](CO)OC5=O)cc4F)CC3)c(F)cc3c(=O)c(C(=O)O)cn1c23 result="4.82 to 5.00"

Let us move to another entry and its pIC50.
Record request: pIC50 value, item CC1Sc2c(C(=O)O)c(=O)c3cc(F)c(N4CCC(O)(COc5ccc(N6C[C@H](CO)OC6=O)cc5F)CC4)cc3n21 (some centres unmarked)
< 4.40

----------
Kindly state MIC for each of the entries shown.
- Tested on: VAN and quinolone-resistant S. pneumoniae
- method: MIC against drug-resistant strain
- Assay type: cell-based
- cond: Streptococcus pneumoniae; S. pneumoniae, VAN and quinolone-resistant; read-out: MIC

Hey, quick one: what's MIC for each of these?
1. C[C@H]1CCc2c(N3CCC(O)(COc4ccc(N5C[C@H](CO)OC5=O)cc4F)CC3)c(F)cc3c(=O)c(C(=O)O)cn1c23
2. COc1c(N2CCNC(C)C2)c(F)cc2c(=O)c(C(=O)O)cn(C3CC3)c12 (stereo not drawn)
3. CC1CCc2c(N3CCC(O)CC3)c(F)cc3c(=O)c(C(=O)O)cn1c23 (stereo not drawn)
4. CC(=O)NC[C@H]1CN(c2ccc(N3CCOCC3)c(F)c2)C(=O)O1 [LZD, linezolid, reference compound]
5. CC1Sc2c(C(=O)O)c(=O)c3cc(F)c(N4CCC(O)(COc5ccc(N6C[C@H](CO)OC6=O)cc5F)CC4)cc3n21 (stereo partly drawn)
6. CCN1CCN(c2cc3c(cc2F)c(=O)c(C(=O)O)cn3C2CC2)CC1

1. 0.25 µg/mL
2. > 32 µg/mL
3. > 32 µg/mL
4. 0.5 µg/mL
5. ≤ 0.0625 µg/mL
6. > 32 µg/mL
